tested on: Saccharomyces cerevisiae; experiment: protein stability index of tFT-peptide fusion (C-terminal peptide) (PSI (0-1 scale)); higher = more stable (slower turnover); settings: genetic background: das1 deletion; temperature: 30 C
Could you please report measured protein stability index for the items listed next?
Give bare numbers.

Recorded protein stability index, per entry:
FFVFLFWWIFLK [SEC22 C-terminal 12 aa]: 0.155
RHQGQNIYRSGV [MCM5 C-terminal 12 aa]: 0.682
VGFAVMALMDEH [YKE4 C-terminal 12 aa]: 0.703
FDDDLTAQLYYP [TDA8 C-terminal 12 aa]: 0.729
CWENVRKTRAAK [PSO2 C-terminal 12 aa]: 0.692

Field: protein stability index. Fill in for each record below.
1. FSTWDIADKQEA [PMT2 C-terminal 12 aa]
2. MSLRKYVSVCSM [YHL006W-A C-terminal 12 aa]
3. AVIVHSYTVQHM [TRM3 C-terminal 12 aa]
4. ISLWYKHNRVKG [YPR077C C-terminal 12 aa]
5. IVKIIRFNHASV [YHL048C-A C-terminal 12 aa]

Result block:
0.717
0.5
0.695
0.677
0.685

Field: protein stability index. Fill in for each record below.
1. SRSNSHRTFFKR [FPK1 C-terminal 12 aa]
2. EFMKTNTGSKKV [CCR4 C-terminal 12 aa]
3. TPLLLGNKGKPQ [YBL094C C-terminal 12 aa]

Result block:
[0.737, 0.703, 0.687]

Field: protein stability index. Fill in for each record below.
1. RRLKNKQRTRFQ [YNR021W C-terminal 12 aa]
2. DEQPTLSQSKTK [DAD1 C-terminal 12 aa]

Result block:
1. 0.726
2. 0.708

###

system: Saccharomyces cerevisiae; test: protein stability index of tFT-peptide fusion (C-terminal peptide) (PSI (0-1 scale)); higher = more stable (slower turnover); details: genetic background: wild type; temperature: 30 C
Kindly return label 1 if reported protein stability index is no lower than 0.6; return label 0 if it is lower.

Examples from the recorded data:
GRLGSTRRPPSG: label 1
AGGGLGAEGCGG: label 1
CFFICGVFVFLM: label 0
NLVCLDPFLVFV: label 0
LPPFPPPSAPPS: label 1

Query block: Say whether QTPNRTPIRPPP shows protein stability index of 0.6 or more.
Result block: label 1

Query block: Say whether EAVVVLVSRFGL shows protein stability index of 0.6 or more.
Result block: label 1

Query block: Say whether RLPPALRRNAPP shows protein stability index of 0.6 or more.
Result block: label 1

Query block: Say whether SGHRLGRGQGQR shows protein stability index of 0.6 or more.
Result block: label 1

Query block: Say whether LRPFSRVLRARS shows protein stability index of 0.6 or more.
Result block: label 1

Query block: Say whether GGGAGWGWGGRM shows protein stability index of 0.6 or more.
Result block: label 1

Query block: Say whether INIKKKKKIQHI shows protein stability index of 0.6 or more.
Result block: label 0

Query block: Say whether LDSMSRPGATVS shows protein stability index of 0.6 or more.
Result block: label 1

Query block: Say whether PPPRPICCALNS shows protein stability index of 0.6 or more.
Result block: label 1

Query block: Say whether YSHPCLSCREAH shows protein stability index of 0.6 or more.
Result block: label 1

Query block: Say whether PAPPPSPPPRLA shows protein stability index of 0.6 or more.
Result block: label 1

Query block: Say whether GEGHGGMLDVVM shows protein stability index of 0.6 or more.
Result block: label 1

Query block: Say whether SFSQTFSSLSSP shows protein stability index of 0.6 or more.
Result block: label 1

Query block: Say whether YLGFRVACPMLA shows protein stability index of 0.6 or more.
Result block: label 0

Query block: Say whether LLRSSPPLPPPS shows protein stability index of 0.6 or more.
Result block: label 1

Query block: Say whether APLPPRSALVGL shows protein stability index of 0.6 or more.
Result block: label 1

Query block: Say whether RTRRPSRTRSAS shows protein stability index of 0.6 or more.
Result block: label 1

Query block: Say whether REYGVKRIEIKQ shows protein stability index of 0.6 or more.
Result block: label 1

Query block: Say whether SCTPPLPFFTSF shows protein stability index of 0.6 or more.
Result block: label 1

Query block: Say whether RGAGRTHCLRAP shows protein stability index of 0.6 or more.
Result block: label 1

Query block: Say whether VLMSCLFFGIRY shows protein stability index of 0.6 or more.
Result block: label 0

Query block: Say whether PSPPPYAPPIPA shows protein stability index of 0.6 or more.
Result block: label 0

Query block: Say whether WSQDRLFLGFGC shows protein stability index of 0.6 or more.
Result block: label 1
